Data origin: patent US4205163A

experiment: in vivo; settings: mouse, po, 100 mg/kg
Known Cmax of a selection of compounds

1) CC[C@H]1OC(=O)C[C@@H](O)[C@H](C)[C@@H](O[C@@H]2O[C@H](C)[C@@H](O[C@H]3C[C@@](C)(O)[C@@H](O)[C@H](C)O3)[C@H](N(C)C)[C@H]2O)[C@@H](CC=O)C[C@@H](C)C(=O)/C=C/C(C)=C/[C@@H]1CO[C@@H]1O[C@H](C)[C@@H](O)[C@@H](OC)[C@H]1OC [tylosin] ... ≤ 1 µg/mL

# query: Cmax of entry CCC1OC(=O)CC(OC(C)=O)C(C)C(OC2OC(C)C(OC3CC(C)(O)C(O)C(C)O3)C(N(C)C)C2O)C(CC=O)CC(C)C(=O)C=CC(C)=CC1COC1OC(C)C(O)C(OC)C1OC (centres unmarked) [3-acetyltylosin, reference compound]
2 to 5 µg/mL

====

test system: Streptococcus pyogenes MH-771; assay: antimicrobial activity, broth dilution method; format: cell-based; details: Streptococcus pyogenes, MH771, Streptococcus pyogenes MH-771, drug-resistant clinical isolate; read-out: minimum inhibitory concentration (MIC)
Known log10(MIC) of a selection of compounds
Hi team, quick reminder: these entries are log10 of MIC (µg/mL).

1) CCC1OC(=O)CC(OC(C)=O)C(C)C(OC2OC(C)C(OC3CC(C)(O)C(OC(=O)C(C)c4ccccc4)C(C)O3)C(N(C)C)C2O)C(CC=O)CC(C)C(=O)C=CC(C)=CC1COC1OC(C)C(O)C(OC)C1OC (stereo not shown) ... 1.10
2) CCCCCC(=O)OC1C(C)OC(OC2C(C)OC(OC3C(CC=O)CC(C)C(=O)C=CC(C)=CC(COC4OC(C)C(O)C(OC)C4OC)C(CC)OC(=O)CC(O)C3C)C(O)C2N(C)C)CC1(C)O (stereo not shown) ... 0.80
3) CCC1OC(=O)CC(OC(C)=O)C(C)C(OC2OC(C)C(OC3CC(C)(O)C(OC(=O)C(OC(C)=O)c4ccccc4)C(C)O3)C(N(C)C)C2O)C(CC=O)CC(C)C(=O)C=CC(C)=CC1COC1OC(C)C(O)C(OC)C1OC (stereo not shown) ... 1.40
4) CCC1OC(=O)CC(O)C(C)C(OC2OC(C)C(OC3CC(C)(O)C(O)C(C)O3)C(N(C)C)C2OC(C)=O)C(CC=O)CC(C)C(=O)C=CC(C)=CC1COC1OC(C)C(OC(=O)COc2ccccc2)C(OC)C1OC (stereo not shown) ... 2.00
5) CCOC(=O)OC1C(C)OC(OCC2C=C(C)C=CC(=O)C(C)CC(CC=O)C(OC3OC(C)C(OC4CC(C)(O)C(O)C(C)O4)C(N(C)C)C3OC(C)=O)C(C)C(OC(C)=O)CC(=O)OC2CC)C(OC)C1OC (stereo not shown) ... 2.00
6) CCC1OC(=O)CC(O)C(C)C(OC2OC(C)C(OC3CC(C)(O)C(OC(=O)CCSc4ccccc4)C(C)O3)C(N(C)C)C2O)C(CC=O)CC(C)C(=O)C=CC(C)=CC1COC1OC(C)C(O)C(OC)C1OC (stereo not shown) ... 0.80
7) CCC1OC(=O)CC(O)C(C)C(OC2OC(C)C(OC3CC(C)(O)C(OC(=O)COc4ccc5ccccc5c4)C(C)O3)C(N(C)C)C2O)C(CC=O)CC(C)C(=O)C=CC(C)=CC1COC1OC(C)C(O)C(OC)C1OC (stereo not shown) ... 1.10
8) CCC1OC(=O)CC(O)C(C)C(OC2OC(C)C(OC3CC(C)(O)C(OC(=O)CCc4ccccc4)C(C)O3)C(N(C)C)C2O)C(CC=O)CC(C)C(=O)C=CC(C)=CC1COC1OC(C)C(O)C(OC)C1OC (stereo not shown) ... 1.40
9) CCC1OC(=O)CC(O)C(C)C(OC2OC(C)C(OC3CC(C)(O)C(OC(=O)CSc4ccc(C)cc4)C(C)O3)C(N(C)C)C2O)C(CC=O)CC(C)C(=O)C=CC(C)=CC1COC1OC(C)C(O)C(OC)C1OC (stereo not shown) ... 1.10
10) CCC1OC(=O)CC(OC(C)=O)C(C)C(OC2OC(C)C(OC3CC(C)(O)C(OC(=O)C(O)Cc4ccccc4)C(C)O3)C(N(C)C)C2O)C(CC=O)CC(C)C(=O)C=CC(C)=CC1COC1OC(C)C(O)C(OC)C1OC (stereo not shown) ... 1.10

# query: log10(MIC) of entry CCC1OC(=O)CC(OC(C)=O)C(C)C(OC2OC(C)C(OC3CC(C)(O)C(O)C(C)O3)C(N(C)C)C2OC(C)=O)C(CC=O)CC(C)C(=O)C=CC(C)=CC1COC1OC(C)C(OC(=O)CCl)C(OC)C1OC (stereo not shown)
2.00
